Origin of measurements: paper PMC11470957

# tgt: KLHDC2^SBD (Homo sapiens)
# Sequence (Q9Y2U9 15-361): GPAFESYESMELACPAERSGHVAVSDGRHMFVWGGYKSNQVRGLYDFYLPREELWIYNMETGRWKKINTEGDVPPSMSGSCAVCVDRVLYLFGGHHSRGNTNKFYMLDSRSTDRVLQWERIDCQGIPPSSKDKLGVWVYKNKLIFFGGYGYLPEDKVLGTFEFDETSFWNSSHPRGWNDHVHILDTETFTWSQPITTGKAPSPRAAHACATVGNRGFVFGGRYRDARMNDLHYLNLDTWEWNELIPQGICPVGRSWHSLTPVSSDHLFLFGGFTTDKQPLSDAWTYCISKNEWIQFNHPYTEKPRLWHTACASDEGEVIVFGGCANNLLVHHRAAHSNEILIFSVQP
# assay.info: Thermal shift assay (Sypro Orange) probing stabilization of KLHDC2^SBD
# Format: binding
# Design: KLHDC2^SBD (15-361) and its Avi-tagged counterpart were expressed in E. coli Rosetta2 cells; 6XHis-MBP (N, cleaved yes); made in house; host or cells: E. coli Rosetta2
# condition.info: KLHDC2^SBD; ligand concentration not given
# From the text: In an attempt to identify non-peptide ligands that target KLHDC2’s substrate binding domain (SBD), we developed a thermal shift assay probing for stabilization of KLHDC2^SBD upon ligand addition. […] We utilized the thermal shift assay to screen ~ 9,000 molecules from a diverse collection of lead-like molecules (Figs. 1b, S1a, Supplementary Table 1). […] contained peptide sub2. Fluorescence measurements of […]
reported.endpoint: Thermal shift ΔTm (°C)

COc1ccc2ccc(-c3nc(CC(=O)NCC(=O)O)cs3)cc2c1 [SJ46417] | 4.3
O=C(O)CNC(=O)Cc1csc(-c2cccc3cccnc23)n1 [SJ46414] | 2.7

I. O=C(O)CNC(=O)Cc1csc(-c2cccc3ccccc23)n1 [SJ46415]
II. O=C(O)CNC(=O)Cc1csc(-c2ccc3ccccc3c2)n1 [SJ46411]
# compare Thermal shift ΔTm for I vs II ; return the one with the smaller value Answer with the label corresponding to your selection.
I
